Tested on: A2780
method: Growth inhibition of human adriamycin and doxorubicin-resistant A2780 cells after 72 hrs
Format: functional, cell-based
conditions: A2780, 72 h
pIC50: −log10 of the molar value.
result type: pIC50

Example entries and their recorded answers appear below.
CC(=O)O[C@@]1([C@@H]2/C(C)=C(/O)C(=O)C3=C(C)[C@@H](OC(=O)[C@H](O)[C@H](CC(C)C)NC(=O)OC(C)(C)C)C[C@@](O)([C@H]2OC(=O)c2cccc(Cl)c2)C3(C)C)CO[C@@H]1CCO : 6.22
COc1cccc(C(=O)O[C@H]2[C@H]([C@]3(OC(C)=O)CO[C@@H]3CCO)/C(C)=C(/O)C(=O)C3=C(C)[C@@H](OC(=O)[C@H](O)[C@H](CC(C)C)NC(=O)OC(C)(C)C)C[C@]2(O)C3(C)C)c1 : 6.45
COc1cccc(C(=O)O[C@H]2[C@H]([C@]3(OC(C)=O)CO[C@@H]3CCO)/C(C)=C(/O)C(=O)C3=C(C)[C@@H](OC(=O)[C@H](O)[C@H](C=C(C)C)NC(=O)OC(C)(C)C)C[C@]2(O)C3(C)C)c1 : 6.41
CC(=O)O[C@@]1([C@@H]2/C(C)=C(/O)C(=O)C3=C(C)[C@@H](OC(=O)[C@H](O)[C@H](CC(C)C)NC(=O)OC(C)(C)C)C[C@@](O)([C@H]2OC(=O)c2ccccc2)C3(C)C)CO[C@@H]1CCO : 5.58

P = CC(=O)O[C@@]1([C@@H]2/C(C)=C(/O)C(=O)C3=C(C)[C@@H](OC(=O)[C@H](O)[C@H](C=C(C)C)NC(=O)OC(C)(C)C)C[C@@](O)([C@H]2OC(=O)c2cccc(Cl)c2)C3(C)C)CO[C@@H]1CCO
Q = CC(=O)O[C@@]1([C@@H]2/C(C)=C(/O)C(=O)C3=C(C)[C@@H](OC(=O)[C@H](O)[C@H](C=C(C)C)NC(=O)OC(C)(C)C)C[C@@](O)([C@H]2OC(=O)c2cccc(F)c2)C3(C)C)CO[C@@H]1CCO
R = CC(=O)O[C@@]1([C@@H]2/C(C)=C(/O)C(=O)C3=C(C)[C@@H](OC(=O)[C@H](O)[C@H](CC(C)C)NC(=O)OC(C)(C)C)C[C@@](O)([C@H]2OC(=O)c2cccc(F)c2)C3(C)C)CO[C@@H]1CCO
# rank_down: sort by pIC50, max first Form entry: labels listed in requested order.
P, Q, R
